# experimental target: T1, IRF4 DBD K59R (Homo sapiens, UniProt Q15306 20-132, K59R)
# T1 sequence: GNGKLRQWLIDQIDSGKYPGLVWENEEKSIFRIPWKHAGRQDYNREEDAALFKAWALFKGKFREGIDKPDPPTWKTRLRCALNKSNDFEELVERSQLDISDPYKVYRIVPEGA
# protocol text: FP; FP: PBS + 0.05% Tween20, 5 nM DNA, 1 h, room temperature; SPR: Biacore S200, SA chip, protein 0.1-4500 nM, running buffer not given in material; errors are SD
# condition description: protein: recombinant; tags: N-terminal His8-linker-His8-TEV, cleaved; label: 3' fluorescein (FAM); hairpin, TTTT loop
parameter measured: Kd (nM)
The reply should contain only the number, in nM.

For the binder CTTGGTTTCACTTCCTGCGTTTTCGCAGGAAGTGAAACCAAG (structured_DNA) [IRE hairpin (FAM)] , report Kd.
350
